# TARGET OR SYSTEM: T1, Chryseobacterium sp-62563 deamidase polypeptide (second polypeptide, deamidase domain), wildtype (Chryseobacterium sp-62563)
# T1 sequence: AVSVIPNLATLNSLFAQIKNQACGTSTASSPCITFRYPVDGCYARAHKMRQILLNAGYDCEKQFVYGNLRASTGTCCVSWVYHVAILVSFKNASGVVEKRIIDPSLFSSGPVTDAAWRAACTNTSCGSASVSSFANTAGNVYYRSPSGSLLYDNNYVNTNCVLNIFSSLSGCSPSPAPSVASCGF
# ASSAY REMARKS: cell-based or functional assay
TEST READOUT: Relative activity of maturated deamidase (% initial rate)

1) Chryseobacterium sp-62563 propeptide T88H (protein) NQDPNLVAKESNETAMKDFGKTVPVGIEKEDGKFKISFMVTAQPYEIKDSKENAAYISMIKTAVENETPIHVFLKANTNEIAKVDKAHDDDIRYFKSVFTKEVKEENRK : 41
2) Chryseobacterium sp-62563 propeptide K96V (protein) NQDPNLVAKESNETAMKDFGKTVPVGIEKEDGKFKISFMVTAQPYEIKDSKENAAYISMIKTAVENETPIHVFLKANTNEIAKVDKATDDDIRYFVSVFTKEVKEENRK : 41
3) Chryseobacterium sp-62563 propeptide V40P (protein) NQDPNLVAKESNETAMKDFGKTVPVGIEKEDGKFKISFMPTAQPYEIKDSKENAAYISMIKTAVENETPIHVFLKANTNEIAKVDKATDDDIRYFKSVFTKEVKEENRK : 39

Origin of the recorded values: patent US20250215412A1
